assay: gradient 5% acetonitrile 3 min, to 50% in 2 min, to 85% in 15 min, held 3 min, 100 µL/min; conditions: column: Zorbax Extend-C18 2.1 x 50 mm; eluents: water / acetonitrile, 0.1% formic acid
Response field class: string, computed from recorded RP-LC retention time by ranges low interval (below 700 s), middle interval (700 s to below 800 s), high interval (800 s or more)

stdin: Which class holds Cc1ccc(C)c(NC(=O)N2CCCN(c3ccc(=O)n(-c4ccccc4)n3)CC2)c1 ?
stdout: middle interval

stdin: Which class holds Cc1ccc(S(=O)(=O)CCc2nc(-c3cccc(-c4ccnn4C)c3)no2)cc1 ?
stdout: high interval

stdin: Which class holds Cc1cccc(CN2CCC(CNC(=O)C3CCCN(c4nccc(C)n4)C3)CC2)c1 (configuration not stated) ?
stdout: low interval

stdin: Which class holds Cc1cc(C)n2c(Nc3ccccc3)c(-c3ccc(Br)cc3O)nc2n1 ?
stdout: high interval

stdin: Which class holds COc1ccc(S(=O)(=O)N2CCCC(C(=O)NCc3cccnc3)C2)cc1OC (configuration not stated) ?
stdout: low interval

stdin: Which class holds O=C(Nc1nnc(-c2cc3ccccc3o2)o1)c1ccc(Cl)s1 ?
stdout: high interval

stdin: Which class holds Cn1cc(S(=O)(=O)N2CCC(C(=O)NC3CCCC3)CC2)cc1C(=O)N1CCCCC1 ?
stdout: middle interval

stdin: Which class holds CC1(C)CC(=O)c2cn(-c3ccc(F)cc3)c(=O)c(C(=O)N3CCC(N4CCCCC4)CC3)c2C1 ?
stdout: low interval

stdin: Which class holds Cc1cccc(NC(=O)N2CCCC(C)(C(=O)NCc3ccccc3C)C2)c1 (configuration not stated) ?
stdout: high interval

stdin: Which class holds O=C1CCC2(CCN1)CCN(S(=O)(=O)c1ccc(Cl)c(Cl)c1)CC2 ?
stdout: high interval

stdin: Which class holds CCOC(=O)c1c(C)oc2ncnc(Nc3cc(C)ccc3OC)c12 ?
stdout: high interval

stdin: Which class holds CCOC(=O)c1noc2nc(C)nc(NC3CCN(Cc4ccccc4)CC3)c12 ?
stdout: low interval

stdin: Which class holds O=C([C@H]1C[C@@H](F)CN1S(=O)(=O)Cc1ccc(Cl)cc1)N1CCOCC1 ?
stdout: middle interval

stdin: Which class holds c1cc2c(cc1-c1noc(C3CCC3)n1)ncn2CCN1CCCC1 ?
stdout: low interval

stdin: Which class holds COc1ccc(-c2ccnn2-c2ccc(SCc3cccc(F)c3)nn2)cc1 ?
stdout: high interval

stdin: Which class holds CCn1ccc(C(=O)N2CCC(Nc3ncnc4c3CCC4)CC2)n1 ?
stdout: low interval
